The values you see were collected from patent USRE49099.

The binders listed here are annotated with their koff.
target: T1, cyno activated protein C (cyno (monkey)); assay: SPR (Biacore), 1:1 binding model
T1 construct: also called cyno aPC; cyno APC
Your answer should be a plain number; it is taken to be in s⁻¹.

1. Hu1573-6 (antibody, V domains shown, Humanized IgG, human gamma 1 / kappa constant regions by vectors pCP-hCg1 and pCP-hck; also called H1573VH.1C + H1573Vk.2) VH: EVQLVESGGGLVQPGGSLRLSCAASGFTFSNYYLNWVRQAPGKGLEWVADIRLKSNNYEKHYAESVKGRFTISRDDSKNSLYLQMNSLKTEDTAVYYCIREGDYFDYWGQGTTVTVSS VL: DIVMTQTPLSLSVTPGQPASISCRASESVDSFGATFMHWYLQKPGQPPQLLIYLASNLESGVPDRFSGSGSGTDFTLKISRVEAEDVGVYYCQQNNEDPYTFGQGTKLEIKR
0.00707
2. Hu1573-3 (antibody, V domains shown, Humanized IgG, human gamma 1 / kappa constant regions by vectors pCP-hCg1 and pCP-hck; also called H1573VH.1B + H1573Vk.2) VH: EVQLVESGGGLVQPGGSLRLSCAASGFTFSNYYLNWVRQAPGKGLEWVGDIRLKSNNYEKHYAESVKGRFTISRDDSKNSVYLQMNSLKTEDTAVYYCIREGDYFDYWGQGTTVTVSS VL: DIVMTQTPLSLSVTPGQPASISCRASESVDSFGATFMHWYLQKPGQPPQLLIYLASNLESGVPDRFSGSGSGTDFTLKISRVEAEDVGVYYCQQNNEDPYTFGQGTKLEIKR
0.0105

API: the following record is the query input.
Sample Hu1573-12 (antibody, V domains shown, Humanized IgG, human gamma 1 / kappa constant regions by vectors pCP-hCg1 and pCP-hck; also called H1573VH.1E + H1573Vk.2) VH: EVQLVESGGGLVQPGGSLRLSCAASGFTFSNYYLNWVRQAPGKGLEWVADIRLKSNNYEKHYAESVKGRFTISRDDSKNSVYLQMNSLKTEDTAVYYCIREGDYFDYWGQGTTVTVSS VL: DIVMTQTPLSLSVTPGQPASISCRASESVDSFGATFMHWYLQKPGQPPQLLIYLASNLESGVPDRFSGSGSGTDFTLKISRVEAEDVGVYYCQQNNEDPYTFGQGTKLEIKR — what was its koff?
0.0054
